Target: cellular tyrosinase (Mus musculus, UniProt P11344)
Construct: the harvested cells were lysed in cell extraction buffer; endogenous in cells; host or cells: B16F10 murine melanoma cells, UVA/UVB-induced
Sequence (P11344 19-533): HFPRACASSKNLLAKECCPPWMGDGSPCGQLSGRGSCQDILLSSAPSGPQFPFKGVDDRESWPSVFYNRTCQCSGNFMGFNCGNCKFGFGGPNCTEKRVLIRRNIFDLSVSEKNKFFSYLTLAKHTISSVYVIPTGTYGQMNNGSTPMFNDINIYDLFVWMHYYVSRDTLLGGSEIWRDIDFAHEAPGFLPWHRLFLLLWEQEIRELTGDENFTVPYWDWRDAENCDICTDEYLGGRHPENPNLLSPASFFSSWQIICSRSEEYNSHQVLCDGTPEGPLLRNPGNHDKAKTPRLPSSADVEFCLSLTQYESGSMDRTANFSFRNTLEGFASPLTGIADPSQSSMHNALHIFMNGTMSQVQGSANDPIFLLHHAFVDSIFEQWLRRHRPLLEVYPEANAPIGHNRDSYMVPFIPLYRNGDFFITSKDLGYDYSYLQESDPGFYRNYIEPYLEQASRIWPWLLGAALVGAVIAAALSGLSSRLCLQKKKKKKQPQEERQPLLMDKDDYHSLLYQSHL
Test: Intracellular (cellular) tyrosinase activity assay in UV-induced B16F10 cells
Type: cell-based, murine
Conditions: 70 μM peptide, UVA/UVB-induced B16F10 cells, triplicate
Protocol: Tyrosinase activity was measured based on Dopa oxidase activity by estimating the dopachrome production according to the method by Qiao et al., 2012 [54], with some modifications. B16F10 cells were seeded at 5 × 10^6 cells/mL in 24-well plates. […] The absorbance was measured at 475 nm and all experiments were performed in triplicate to determine the IC50 of the samples. […]
Where a SMILES comes first, the peptide text is derived from it.
REPORTED ENDPOINT: inhibition of cellular tyrosinase

// lookup inhibition of cellular tyrosinase for CC(C)[C@H](NC(=O)[C@H](CO)NC(=O)[C@H](CCCNC(=N)N)NC(=O)[C@H](CO)NC(=O)[C@H](CC(N)=O)NC(=O)[C@H](CO)NC(=O)[C@H](CCC(N)=O)NC(=O)[C@@H](N)CO)C(=O)N[C@@H](CO)C(=O)N[C@@H](CCCNC(=N)N)C(=O)O [RF3] (H-SQSNSRSVSR-OH; N-terminus and C-terminus assumed)
5.11%

Same for CSCC[C@H](NC(=O)[C@H](Cc1ccccc1)NC(=O)[C@@H]1CCCN1C(=O)[C@H](C)NC(=O)[C@@H](N)CO)C(=O)N1CCC[C@H]1C(=O)N[C@@H](CC(=O)O)C(=O)N[C@@H](C)C(=O)N[C@@H](Cc1ccccc1)C(=O)N[C@@H](Cc1ccccc1)C(=O)N[C@@H](CCCNC(=N)N)C(=O)N[C@@H](CC(N)=O)C(=O)N[C@H](C(=O)O)C(C)C [TIP2] (H-SAPFMPDAFFRNV-OH; N-terminus and C-terminus assumed)
3.32%

Each recorded value in this set is attributed to paper PMC9965614.
